- Assay system: UniProt:Q15858
- Sequence (Q15858 whole entry): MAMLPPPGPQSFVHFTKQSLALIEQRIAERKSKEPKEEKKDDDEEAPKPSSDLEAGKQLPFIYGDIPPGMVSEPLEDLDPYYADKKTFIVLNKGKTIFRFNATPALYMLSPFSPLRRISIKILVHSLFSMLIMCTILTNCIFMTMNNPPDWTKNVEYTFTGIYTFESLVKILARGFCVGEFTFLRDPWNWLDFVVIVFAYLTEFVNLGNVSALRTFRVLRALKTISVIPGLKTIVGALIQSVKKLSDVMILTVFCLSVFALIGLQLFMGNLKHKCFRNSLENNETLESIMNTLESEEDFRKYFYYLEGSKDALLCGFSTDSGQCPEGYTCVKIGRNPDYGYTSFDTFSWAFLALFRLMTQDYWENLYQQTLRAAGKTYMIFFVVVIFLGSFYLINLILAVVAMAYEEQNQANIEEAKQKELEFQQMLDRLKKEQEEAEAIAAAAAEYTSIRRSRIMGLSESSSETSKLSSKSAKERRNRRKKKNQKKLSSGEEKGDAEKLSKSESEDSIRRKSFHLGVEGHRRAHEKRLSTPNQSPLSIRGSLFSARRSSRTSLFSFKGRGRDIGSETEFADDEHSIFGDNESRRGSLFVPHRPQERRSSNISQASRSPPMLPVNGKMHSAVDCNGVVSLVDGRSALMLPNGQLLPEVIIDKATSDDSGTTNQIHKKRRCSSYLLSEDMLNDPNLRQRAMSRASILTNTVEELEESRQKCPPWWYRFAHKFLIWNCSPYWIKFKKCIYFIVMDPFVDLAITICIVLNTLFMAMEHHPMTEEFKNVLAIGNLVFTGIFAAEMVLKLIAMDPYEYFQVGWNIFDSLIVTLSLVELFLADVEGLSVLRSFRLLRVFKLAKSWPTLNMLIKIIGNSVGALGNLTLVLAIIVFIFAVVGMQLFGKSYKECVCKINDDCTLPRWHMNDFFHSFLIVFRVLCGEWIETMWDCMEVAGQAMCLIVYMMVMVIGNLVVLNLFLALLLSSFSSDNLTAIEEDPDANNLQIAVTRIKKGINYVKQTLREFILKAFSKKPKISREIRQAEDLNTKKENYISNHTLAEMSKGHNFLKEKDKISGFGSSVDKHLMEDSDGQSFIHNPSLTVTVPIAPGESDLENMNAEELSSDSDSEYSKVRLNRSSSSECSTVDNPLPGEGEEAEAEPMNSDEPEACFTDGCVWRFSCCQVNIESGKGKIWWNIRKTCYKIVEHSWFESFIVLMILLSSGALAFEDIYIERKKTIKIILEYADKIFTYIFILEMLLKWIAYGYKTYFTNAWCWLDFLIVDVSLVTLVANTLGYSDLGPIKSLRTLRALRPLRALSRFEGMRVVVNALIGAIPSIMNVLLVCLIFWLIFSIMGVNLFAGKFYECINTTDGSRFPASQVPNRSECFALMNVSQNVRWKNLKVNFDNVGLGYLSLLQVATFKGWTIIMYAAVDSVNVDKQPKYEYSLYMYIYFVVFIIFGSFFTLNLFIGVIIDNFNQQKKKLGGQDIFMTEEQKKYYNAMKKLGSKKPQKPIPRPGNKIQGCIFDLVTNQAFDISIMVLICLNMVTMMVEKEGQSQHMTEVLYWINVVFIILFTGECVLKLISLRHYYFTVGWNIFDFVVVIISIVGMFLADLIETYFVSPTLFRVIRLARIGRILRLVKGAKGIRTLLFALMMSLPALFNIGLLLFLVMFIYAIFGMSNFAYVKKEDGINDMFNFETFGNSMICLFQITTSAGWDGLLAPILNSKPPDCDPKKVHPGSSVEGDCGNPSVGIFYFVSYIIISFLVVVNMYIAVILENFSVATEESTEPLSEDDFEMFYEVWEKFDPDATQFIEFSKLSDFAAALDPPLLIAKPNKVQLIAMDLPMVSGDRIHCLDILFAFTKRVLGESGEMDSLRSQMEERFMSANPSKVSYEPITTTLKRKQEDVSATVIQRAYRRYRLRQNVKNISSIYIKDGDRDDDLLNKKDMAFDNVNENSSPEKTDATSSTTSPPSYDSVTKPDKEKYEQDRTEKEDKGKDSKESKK
- Assay notes: Blocking effect against sodium ion channel Nav1.7, IonFlux16 auto patch clamp in hNav1.7 HEK293 cells
- Type: cell-based
- Study conditions: hNav1.7 HEK293 cells; inhibition of peak current after 50 seconds treatment; eight concentrations; read-out: IC50
For each entry below, report its IC50 value.
Numbers only, in nM.

CS(=O)(=O)NC(=O)c1cc(Cl)c(-n2nc(-c3ccc(N)cc3)c3cc(Cl)ccc32)cc1F [Example 82]: 7910
CS(=O)(=O)NC(=O)c1cc(Cl)c(-n2nc(Cl)c3cc(-c4cc(C#N)ccc4F)ccc32)cc1F [Example 238]: 341
CS(=O)(=O)NC(=O)c1cc(Cl)c(-n2nc(C#N)c3cc(Br)ccc32)cc1F [Example 22]: 966
Cn1nccc1-c1ccc2c(c1)c(Cl)nn2-c1cc(F)c(C(=O)NS(C)(=O)=O)cc1Cl [Example 256]: 3990
CS(=O)(=O)NC(=O)c1cc(F)c(-n2nc(-c3cccc(C#N)c3)c3cc(Cl)ccc32)cc1Cl [Example 109]: 450
CC(C)COc1ccc2c(c1)c(Cl)nn2-c1cc(F)c(C(=O)NS(C)(=O)=O)cc1Cl [Example 42]: 181
CS(=O)(=O)NC(=O)c1cc(Cl)c(-n2cc(-c3ccc(F)cc3F)c3cc(Cl)cnc32)cc1F [Example 186]: 80
CS(=O)(=O)NC(=O)c1cc(Cl)c(-n2cc(-c3ccc(F)cc3F)c3cccnc32)cc1F [Example 229]: 180
CS(=O)(=O)NC(=O)c1cc(Cl)c(-n2nc(-c3ccccc3C(F)(F)F)c3cc(F)ccc32)cc1F [Example 145]: 110
CS(=O)(=O)NC(=O)c1cc(Cl)c(-n2cc(-c3cccc(F)c3)c3cccnc32)cc1F [Example 214]: 340

-- ask Which IC50 is listed for CN(C)S(=O)(=O)NC(=O)c1cc(Cl)c(-n2nc(Cl)c3cc(OCc4ccccc4)ccc32)cc1F [Example 43] ?
-- reply 200
